Experiment: solubility in PBS, pH 6.5
Type: physicochemical
Details: pH 6.5, aqueous buffer
experimental readout: solubility

Entry CCOC(=O)N1c2ccc(C(F)(F)F)cc2[C@@H](N(Cc2cc(C(F)(F)F)cc(C(F)(F)F)c2)C(=O)OC)C[C@H]1CC : reported solubility = ?
< 1 µg/mL

Now give it for Cc1c(O)cccc1C(=O)N[C@@H](CSc1ccccc1)[C@H](O)CN1C[C@H]2CCCC[C@H]2C[C@H]1C(=O)NC(C)(C)C too.
~20 µg/mL

Data credit: patent US20070148232A1
